Study System: TcGr20 (gustatory receptor 20) (Tribolium castaneum, UniProt D2A5I4)
Construct: ORF of TcGr20 expressed in Xenopus oocytes
Sequence (D2A5I4 1-388): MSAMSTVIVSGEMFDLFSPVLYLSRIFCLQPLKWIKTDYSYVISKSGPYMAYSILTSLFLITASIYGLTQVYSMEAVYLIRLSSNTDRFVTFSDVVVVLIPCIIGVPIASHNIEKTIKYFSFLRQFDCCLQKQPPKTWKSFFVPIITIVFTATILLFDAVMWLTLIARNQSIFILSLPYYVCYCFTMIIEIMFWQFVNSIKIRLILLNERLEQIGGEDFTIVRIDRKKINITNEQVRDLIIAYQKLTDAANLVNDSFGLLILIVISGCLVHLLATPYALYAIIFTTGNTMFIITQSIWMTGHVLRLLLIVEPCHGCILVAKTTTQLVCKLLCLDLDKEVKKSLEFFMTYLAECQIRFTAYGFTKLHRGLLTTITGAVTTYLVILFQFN
Experimental Protocol: two-electrode voltage clamp in Xenopus oocytes expressing TcGr20, dose-response; water-injected control negative
Format: cell-based
Property Name: pEC50
In textbook form, pEC50 equals minus log to base ten of the concentration in mol/L.

Notebook: pull reported pEC50 for TcGr20 (gustatory receptor 20) (Tribolium castaneum, UniProt D2A5I4), entry OC[C@@H](O)[C@@H](O)[C@H](O)[C@H](O)CO 1.14
